Attribute: IC50
Test system: human APOE RNA
Protocol: Dose-dependent inhibition of human APOE RNA in HepG2 cells, electroporation, 24 hours (Example 6)
Type: cell-based
Strand notation (5' to 3'): a small letter for the sugar, then the base; units joined by * are phosphorothioate-linked, units joined directly phosphodiester-linked; [ ] holds rarer units or linkages, { } end groups; capitals alone tell only the bases. [ms] = mesyl phosphoramidate linkage; e = 2'-O-(2-methoxyethyl) (MOE); k = constrained ethyl (cEt); [5mC] = 5-methylcytosine; d = 2'-deoxy (DNA)
Number only, in µM; omit the unit.

Answered cases to consult:
>>> observed_value("1736536 (e[5mC]*eT*eT*eG*kGkT*dG[ms]dA[ms]dA[ms]dT*d[5mC]*dT*dT*dT*dA[ms]dT*eT*eA*eA*eA; antisense) [Compound 1736536]")
0.62
>>> observed_value("1736516 (e[5mC]*eTeTeG*eG*kT*dG[ms]dA[ms]dA[ms]dT*d[5mC]*dT*dT*dT*dA[ms]dT*eT*eA*eA*eA; antisense) [Compound 1736516]")
1.14
>>> observed_value("1736514 (e[5mC]*eTeT*eG*kG*kT*dG[ms]dA[ms]dA[ms]dT*d[5mC]*dT*dT*dT*dA[ms]dT*eT*eA*eA*eA; antisense) [Compound 1736514]")
0.67
>>> observed_value("1693105: 6-10-4 MOE gapmer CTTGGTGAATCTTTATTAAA, linkages sosssszzzssssszssss (e[5mC]*eTeT*eG*eG*eT*dG[ms]dA[ms]dA[ms]dT*d[5mC]*dT*dT*dT*dA[ms]dT*eT*eA*eA*eA) [compound 1693105]")
1.1
>>> observed_value("1736513 (e[5mC]*eTeT*eG*eG*kT*dG[ms]dA[ms]dA[ms]dT*d[5mC]*dT*dT*dT*dA[ms]dT*eT*eA*eA*eA; antisense) [Compound 1736513]")
0.72

IC50 reported for this substance 1736529 (e[5mC]*eT*eT*eG*eG*eTdG[ms]dA[ms]dA[ms]dT*d[5mC]*dT*dT*dT*dA[ms]dT*kT*kA*eA*eA; antisense) [Compound 1736529] : 1.12

----------
Test system: human APOE RNA
Protocol: Activity in APOE C57BL/6NTac-Apoeem7250 knock-in mice, single ICV bolus, 8 weeks (Example 11)
Format: in vivo
Particulars: cortex; single ICV bolus 300 μg; 8 weeks post treatment; normalized to mouse Ppia
Strand notation (5' to 3'): a small letter for the sugar, then the base; units joined by * are phosphorothioate-linked, units joined directly phosphodiester-linked; [ ] holds rarer units or linkages, { } end groups; capitals alone tell only the bases. [ms] = mesyl phosphoramidate linkage; e = 2'-O-(2-methoxyethyl) (MOE); k = constrained ethyl (cEt); [5mC] = 5-methylcytosine; d = 2'-deoxy (DNA)
Readout name: APOE RNA (% control) Cortex
Please state the figure in % control; there is no need to write the unit.

>>> observed_value("1809741: mixed MOE/cEt gapmer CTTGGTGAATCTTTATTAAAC, sugar eeeeekddddddddddeeeee, linkages ssoooszzsssssszsooss (e[5mC]*eT*eTeGeGkT*dG[ms]dA[ms]dA*dT*d[5mC]*dT*dT*dT*dA[ms]dT*eTeAeA*eA*e[5mC]) [compound 1809741]")
33
>>> observed_value("1652912: 5-10-5 MOE gapmer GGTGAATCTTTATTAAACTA, linkages sooossssssszsszooss (antisense eG*eGeTeGeA*dA*dT*d[5mC]*dT*dT*dT*dA[ms]dT*dT*dA[ms]eAeAe[5mC]*eT*eA) [compound 1652912]")
95
>>> observed_value("1746800 (k[5mC]*dT[ms]kT*dG[ms]dG[ms]kT*dG[ms]dA[ms]dA[ms]dT*d[5mC]*dT*dT*dT*dA[ms]dT*kT*dA[ms]kA*kA; antisense) [Compound 1746800]")
40
>>> observed_value("1652918: 6-10-4 MOE gapmer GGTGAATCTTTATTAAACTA, linkages sooooozzzsssssssoss (antisense eG*eGeTeGeAeAdT[ms]d[5mC][ms]dT[ms]dT*dT*dA*dT*dT*dA*dA*eAe[5mC]*eT*eA) [compound 1652918]")
91
>>> observed_value("1693040: 5-10-5 MOE gapmer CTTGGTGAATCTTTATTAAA, linkages sssosszzzssssssosss (antisense e[5mC]*eT*eT*eGeG*dT*dG[ms]dA[ms]dA[ms]dT*d[5mC]*dT*dT*dT*dA*eTeT*eA*eA*eA) [compound 1693040]")
80

1693084: 6-10-4 MOE gapmer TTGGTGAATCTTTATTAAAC, linkages ssssszzzszsszzsssss (eT*eT*eG*eG*eT*eG[ms]dA[ms]dA[ms]dT*d[5mC][ms]dT*dT*dT[ms]dA[ms]dT*dT*eA*eA*eA*e[5mC]) [compound 1693084] tested on human APOE RNA gave APOE RNA (% control) Cortex: 72

Value sought: APOE RNA (% control) Cortex, system human APOE RNA, item 1810065: mixed MOE/cEt gapmer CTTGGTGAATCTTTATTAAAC, sugar eeeeekddddddddddeeeee, linkages ssoosszzzssssszsooss (listed as DNA, chemistry not fully specified) [compound 1810065] . Result: 29

----------
System: human APOE RNA
Protocol: Activity in APOE C57BL/6NTac-Apoeem7250 knock-in mice, single ICV bolus, 16 weeks (Example 12)
Format: in vivo
Particulars: spinal cord; single ICV bolus 300 μg; 16 weeks post treatment; normalized to mouse Ppia
Strand notation (5' to 3'): a small letter for the sugar, then the base; units joined by * are phosphorothioate-linked, units joined directly phosphodiester-linked; [ ] holds rarer units or linkages, { } end groups; capitals alone tell only the bases. [ms] = mesyl phosphoramidate linkage; e = 2'-O-(2-methoxyethyl) (MOE); k = constrained ethyl (cEt); [5mC] = 5-methylcytosine; d = 2'-deoxy (DNA)
Readout name: APOE RNA (% control) Spinal Cord
// return numeric value only (unit: % control, not printed)

Known results for substances:
>>> observed_value("1652901: 6-10-4 MOE gapmer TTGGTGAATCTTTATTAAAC, linkages sooooossssssssssoss (antisense eT*eTeGeGeTeGdA*dA*dT*d[5mC]*dT*dT*dT*dA*dT*dT*eAeA*eA*e[5mC]) [compound 1652901]")
61
>>> observed_value("1693063: 5-10-5 MOE gapmer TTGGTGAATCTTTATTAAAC, linkages ssssszzzsssszzsssss (antisense eT*eT*eG*eG*eT*dG[ms]dA[ms]dA[ms]dT*d[5mC]*dT*dT*dT[ms]dA[ms]dT*eT*eA*eA*eA*e[5mC]) [compound 1693063]")
87
>>> observed_value("1736493 (e[5mC]*eTeT*eG*eG*eT*dG[ms]dA[ms]dA[ms]dT*d[5mC]*dT*dT*dT*dA[ms]dT*kT*kA*eA*eA; antisense) [Compound 1736493]")
51

// recorded APOE RNA (% control) Spinal Cord for 1693079: 6-10-4 MOE gapmer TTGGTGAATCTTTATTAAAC, linkages sssosszzszssszssoss (eT*eT*eG*eGeT*eG*dA[ms]dA[ms]dT*d[5mC][ms]dT*dT*dT*dA[ms]dT*dT*eAeA*eA*e[5mC]) [compound 1693079] : 106

----------
System: human APOE RNA
Protocol: Duration of action study in APOE C57BL/6NTac-Apoeem7250 knock-in mice (Example 16)
Assay type: in vivo
Particulars: spinal cord; 300 μg ICV; 112 days post-dose
Strand notation (5' to 3'): a small letter for the sugar, then the base; units joined by * are phosphorothioate-linked, units joined directly phosphodiester-linked; [ ] holds rarer units or linkages, { } end groups; capitals alone tell only the bases. [ms] = mesyl phosphoramidate linkage; k = constrained ethyl (cEt); [5mC] = 5-methylcytosine; d = 2'-deoxy (DNA)
Measured APOE RNA (% control) Spinal Cord, listed per entry.
Quick note: give the figure in % control, leave out the unit.

// solved cases for APOE RNA (% control) Spinal Cord follow
>>> observed_value("1746800 (k[5mC]*dT[ms]kT*dG[ms]dG[ms]kT*dG[ms]dA[ms]dA[ms]dT*d[5mC]*dT*dT*dT*dA[ms]dT*kT*dA[ms]kA*kA; antisense) [Compound 1746800]")
88
>>> observed_value("1747050 (k[5mC]*kT*kT*dG[ms]dG[ms]kT*dG[ms]dA[ms]dA[ms]dT*d[5mC]*dT*dT*dT*dA[ms]dT*kT*dA[ms]dA[ms]kA; antisense) [Compound 1747050]")
93

For this substance ( 1746811 (k[5mC]*dT[ms]dT[ms]kG*kG*dT[ms]dG[ms]dA[ms]dA[ms]dT*d[5mC]*dT*dT*dT*dA[ms]dT*dT[ms]kA*kA*kA; antisense) [Compound 1746811] ), measured APOE RNA (% control) Spinal Cord is 95

# APOE RNA (% control) Spinal Cord of 1746784 (k[5mC]*kT*kT*dG[ms]dG[ms]dT[ms]dG[ms]dA[ms]dA[ms]dT*d[5mC]*dT*dT*dT*dA[ms]dT*kT*kA*dA[ms]kA; antisense) [Compound 1746784] = 24
